Test system: HeLa
Test: Cytotoxicity against human HeLa cells assessed as cell viability after 48 hrs by MTT assay
Format: functional, cell-based
test readout: IC50 (µM)
// return numeric value only (unit: µM, not printed)

CN(C)CCN1C(=O)c2cccc3c(-n4cc(-c5ccccc5)cn4)ccc(c23)C1=O ... 6.5
CN(C)CCN1C(=O)c2cccc3c(-n4cc(-c5ccc(C(F)(F)F)cc5)cn4)ccc(c23)C1=O ... 13.3
CN(C)CCN1C(=O)c2cccc3c(-n4cc(-c5ccc(F)cc5)cn4)ccc(c23)C1=O ... 3.1

Now for the compound whose IC50 we want.
// query Determine its reported IC50: CN(C)CCN1C(=O)c2cccc3cc(N)cc(c23)C1=O [AMONAFIDE]
// result 6.71

* * *

Test system: HeLa
Test: Cytotoxicity against human HeLa cells assessed as cell viability after 48 hrs by MTT assay
Type: functional, cell-based
Below, each of the compounds is paired with its reported IC50 value.
Value expressed in µM; do not type the unit.

Worked examples, 5 compounds total:
Cc1ccc(-c2cnn(-c3ccc4c5c(cccc35)C(=O)N(CCN(C)C)C4=O)c2)cc1 ... 4.6
CN(C)CCN1C(=O)c2cccc3c(-n4cc(-c5ccc(Br)cc5)cn4)ccc(c23)C1=O ... 3.47
CN(C)CCN1C(=O)c2cccc3c(-n4cc(-c5ccc(Cl)cc5)cn4)ccc(c23)C1=O ... 10.6
COc1ccc(-c2cnn(-c3ccc4c5c(cccc35)C(=O)N(CCN(C)C)C4=O)c2)cc1OC ... 3.5
CN(C)CCN1C(=O)c2cccc3c(-n4cc(-c5cc(C(F)(F)F)cc(C(F)(F)F)c5)cn4)ccc(c23)C1=O ... 16.6

// query Read off the recorded IC50 for `COc1ccc(-c2cnn(-c3ccc4c5c(cccc35)C(=O)N(CCN(C)C)C4=O)c2)cc1`
// result 4.99

// query Tell us which IC50 value is on record for `COc1cccc(-c2cnn(-c3ccc4c5c(cccc35)C(=O)N(CCN(C)C)C4=O)c2)c1`
// result 14.6

// query Tell me measured IC50 for `COc1cc(-c2cnn(-c3ccc4c5c(cccc35)C(=O)N(CCN(C)C)C4=O)c2)cc(OC)c1OC` please.
// result 3.09

// query Identify measured IC50 corresponding to `CN(C)CCN1C(=O)c2cccc3c(-n4cccn4)ccc(c23)C1=O`
// result 9.47
